Just for reference, ChEMBL document CHEMBL2062385 is where these values come from.

- test_description: Cmax in Sprague-Dawley rat at 10 mg/kg, po
- Format: ADME, organism-based
- Parameters: dose 10 mg/kg, route oral
- particulars: in vivo
test_readout: Cmax

Can you share its Cmax? I mean this molecule: COc1ccc2cc(C(C)C(=O)OCCOC(=O)c3cc(O)c4c(c3)C(=O)c3cccc(O)c3C4=O)ccc2c1 (stereo unspecified)
1090 ng/mL

====

- test_description: Half life in Sprague-Dawley rat at 5.26 mg/kg, po
- Type: ADME, organism-based
- Design: dose 5.26 mg/kg, route oral
- particulars: in vivo
test_readout: half-life (h)
Express the result in h but write the number alone.

Can you share its half-life? I mean this compound: O=C(O)c1cc(O)c2c(c1)C(=O)c1cccc(O)c1C2=O
1.24

====

- test_description: Cmax in Sprague-Dawley rat at 5.26 mg/kg, po
- Format: ADME, organism-based
- Design: dose 5.26 mg/kg, route oral
- particulars: in vivo
test_readout: Cmax (ng/mL)
Express the result in ng/mL but write the number alone.

Can you share its Cmax? I mean this molecule: O=C(O)c1cc(O)c2c(c1)C(=O)c1cccc(O)c1C2=O
432

====

- test_description: MRT (0 to infinity) in Sprague-Dawley rat at 10 mg/kg, po
- Type: ADME, organism-based
- Design: dose 10 mg/kg, route oral
- particulars: in vivo
test_readout: MRT inf

Can you share its MRT inf? I mean this molecule: COc1ccc2cc(C(C)C(=O)OCCOC(=O)c3cc(O)c4c(c3)C(=O)c3cccc(O)c3C4=O)ccc2c1 (stereo unspecified)
4.23 h

====

- test_description: AUC (0 to infinity) in Sprague-Dawley rat at 5.26 mg/kg, po
- Type: ADME, organism-based
- Parameters: time infinity, dose 5.26 mg/kg, route oral
- particulars: plasma
test_readout: AUC(0-inf) (ng·h/mL)
Express the result in ng·h/mL but write the number alone.

Can you share its AUC(0-inf)? I mean this compound: O=C(O)c1cc(O)c2c(c1)C(=O)c1cccc(O)c1C2=O
1380

====

- test_description: AUC (0 to 9 hrs) in Sprague-Dawley rat at 5.26 mg/kg, po
- Assay type: ADME, organism-based
- Set-up: time < 9 hr, dose 5.26 mg/kg, route oral
- particulars: plasma
test_readout: AUC(0-t) at 9 h

Can you share its AUC(0-t) at 9 h? I mean this compound: O=C(O)c1cc(O)c2c(c1)C(=O)c1cccc(O)c1C2=O [RHEIN]
1170 ng·h/mL

====

- test_description: AUC (0 to 9 hrs) in Sprague-Dawley rat at 10 mg/kg, po
- Assay type: ADME, organism-based
- Parameters: time < 9 hr, dose 10 mg/kg, route oral
- particulars: plasma
test_readout: AUC(0-t) at 9 h (ng·h/mL)
Express the result in ng·h/mL but write the number alone.

Can you share its AUC(0-t) at 9 h? I mean this compound: COc1ccc2cc(C(C)C(=O)OCCOC(=O)c3cc(O)c4c(c3)C(=O)c3cccc(O)c3C4=O)ccc2c1 (stereo unspecified)
4420

====

- test_description: MRT (0 to infinity) in Sprague-Dawley rat at 5.26 mg/kg, po
- Type: ADME, organism-based
- Parameters: dose 5.26 mg/kg, route oral
- particulars: in vivo
test_readout: MRT inf (h)
Express the result in h but write the number alone.

Can you share its MRT inf? I mean this compound: O=C(O)c1cc(O)c2c(c1)C(=O)c1cccc(O)c1C2=O
3.78

====

- test_description: Tmax in Sprague-Dawley rat at 5.26 mg/kg, po
- Format: ADME, organism-based
- Design: dose 5.26 mg/kg, route oral
- particulars: in vivo
test_readout: Tmax (h)
Express the result in h but write the number alone.

Can you share its Tmax? I mean this molecule: O=C(O)c1cc(O)c2c(c1)C(=O)c1cccc(O)c1C2=O
2.04

====

- test_description: AUC (0 to infinity) in Sprague-Dawley rat at 10 mg/kg, po
- Type: ADME, organism-based
- Set-up: time infinity, dose 10 mg/kg, route oral
- particulars: plasma
test_readout: AUC(0-inf) (ng·h/mL)
Express the result in ng·h/mL but write the number alone.

Can you share its AUC(0-inf)? I mean this compound: COc1ccc2cc(C(C)C(=O)OCCOC(=O)c3cc(O)c4c(c3)C(=O)c3cccc(O)c3C4=O)ccc2c1 (stereo unspecified)
4860

====

- test_description: Prodrug conversion at pH 7.4 assessed as hydrolysis up to 24 hrs by HPLC analysis
- Assay type: physicochemical
- particulars: buffer, pH 7.4, 24 h

| compound | Drug metabolism |
| --- | --- |
| CC(=O)Oc1cccc2c1C(=O)c1c(OC(C)=O)cc(C(=O)OCCOC(=O)C(C)c3ccc(CC(C)C)cc3)cc1C2=O (centres undefined) | Active |
| O=C(OCCO)c1cc(O)c2c(c1)C(=O)c1cccc(O)c1C2=O | Active |
| COc1ccc2cc(C(C)C(=O)OCCOC(=O)c3cc(O)c4c(c3)C(=O)c3cccc(O)c3C4=O)ccc2c1 (centres undefined) | Active |
| CC(=O)Oc1ccccc1C(=O)OCCOC(=O)c1cc(OC(C)=O)c2c(c1)C(=O)c1cccc(OC(C)=O)c1C2=O | Active |

====

- test_description: MRT (0 to 9 hrs) in Sprague-Dawley rat at 10 mg/kg, po
- Format: ADME, organism-based
- Design: dose 10 mg/kg, route oral
- particulars: in vivo
test_readout: MRT last (h)
Express the result in h but write the number alone.

Can you share its MRT last? I mean this molecule: COc1ccc2cc(C(C)C(=O)OCCOC(=O)c3cc(O)c4c(c3)C(=O)c3cccc(O)c3C4=O)ccc2c1 (stereo unspecified)
3.46

====

- test_description: Prodrug conversion at pH 1.2 assessed as hydrolysis up to 24 hrs by HPLC analysis
- Assay type: physicochemical
- particulars: buffer, pH 1.2, 24 h
test_readout: Drug metabolism

| smiles_str | reported_measurement |
| --- | --- |
| CC(=O)Oc1ccccc1C(=O)OCCOC(=O)c1cc(O)c2c(c1)C(=O)c1cccc(O)c1C2=O | Active |
| COc1ccc2c(c1)c(CC(=O)OCCOC(=O)c1cc(OC(C)=O)c3c(c1)C(=O)c1cccc(OC(C)=O)c1C3=O)c(C)n2C(=O)c1ccc(Cl)cc1 | Active |
| O=C(OCCO)c1cc(O)c2c(c1)C(=O)c1cccc(O)c1C2=O | Active |

====

- test_description: MRT (0 to 9 hrs) in Sprague-Dawley rat at 5.26 mg/kg, po
- Type: ADME, organism-based
- Set-up: dose 5.26 mg/kg, route oral
- particulars: in vivo
test_readout: MRT last (h)
Express the result in h but write the number alone.

Can you share its MRT last? I mean this compound: O=C(O)c1cc(O)c2c(c1)C(=O)c1cccc(O)c1C2=O [RHEIN]
2.92

====

- test_description: Half life in Sprague-Dawley rat at 10 mg/kg, po
- Assay type: ADME, organism-based
- Parameters: dose 10 mg/kg, route oral
- particulars: in vivo
test_readout: half-life (h)
Express the result in h but write the number alone.

Can you share its half-life? I mean this compound: COc1ccc2cc(C(C)C(=O)OCCOC(=O)c3cc(O)c4c(c3)C(=O)c3cccc(O)c3C4=O)ccc2c1 (stereo unspecified)
2.19

====

Assignment: determine reported UI for the given compounds.
- Tested on: Mus musculus
- test_description: Ulcerogenic activity in Kunming mouse assessed as ulcer index at 1 mmol/kg, po measured after 4 hrs
- Format: toxicity, organism-based
- particulars: in vivo

Can you share its UI? I mean this compound: CC(C)Cc1ccc(C(C)C(=O)OCCOC(=O)c2cc(O)c3c(c2)C(=O)c2cccc(O)c2C3=O)cc1 (stereo not given)
5.8

Field entry: CC(C)Cc1ccc(C(C)C(=O)OCCOCCOCCOC(=O)c2cc(O)c3c(c2)C(=O)c2cccc(O)c2C3=O)cc1 (stereo not given)
5.8

Field entry: CC(C)Cc1ccc(C(C)C(=O)OCCOCCOC(=O)c2cc(O)c3c(c2)C(=O)c2cccc(O)c2C3=O)cc1 (stereo not given)
5.8

Field entry: COc1ccc2cc(C(C)C(=O)OCCOC(=O)c3cc(O)c4c(c3)C(=O)c3cccc(O)c3C4=O)ccc2c1 (stereo not given)
5.8

Field entry: CC(C)Cc1ccc(C(C)C(=O)O)cc1 (stereo not given)
8.3
